Entry source: patent US11028078B2

Target: CYP3A4 (Homo sapiens, UniProt P08684)
Sequence (P08684 whole entry): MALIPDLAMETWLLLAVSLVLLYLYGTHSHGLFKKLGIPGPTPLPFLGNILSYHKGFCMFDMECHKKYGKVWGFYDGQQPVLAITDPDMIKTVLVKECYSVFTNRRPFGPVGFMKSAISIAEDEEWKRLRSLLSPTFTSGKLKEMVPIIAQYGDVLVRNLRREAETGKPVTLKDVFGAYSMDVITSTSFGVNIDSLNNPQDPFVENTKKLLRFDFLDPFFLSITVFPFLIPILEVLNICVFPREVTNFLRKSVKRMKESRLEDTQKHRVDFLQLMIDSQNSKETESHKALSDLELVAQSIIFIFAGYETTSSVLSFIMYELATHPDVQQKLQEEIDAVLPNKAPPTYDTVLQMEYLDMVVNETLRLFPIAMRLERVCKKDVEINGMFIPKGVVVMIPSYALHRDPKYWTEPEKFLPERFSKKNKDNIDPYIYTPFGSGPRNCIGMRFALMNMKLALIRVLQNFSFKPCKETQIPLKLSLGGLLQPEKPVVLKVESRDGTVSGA
test-readout: IC50

So the reported IC50 for CCC(C)n1ncn(-c2ccc(N3CCN(c4ccc(OC[C@@H]5CO[C@@](Cn6cnnn6)(c6ccc(Cl)cc6Cl)O5)cc4)CC3)cc2)c1=O (stereo partly shown) , on CYP3A4 (Homo sapiens, UniProt P08684), turned out to be > 20 µM

====

Test system: HUVEC
Assay: HUVEC proliferation assay ([3H]thymidine incorporation)
Type: cell-based, human
Settings: Homo sapiens; HUVEC, 3H thymidine incorporation; in μM; read-out: Proliferation IC50
test-readout: IC50 (µM)
Give the value in µM but do not write µM after it.

# annotated cases, reported IC50 shown
>>> meas_value("CCC(C)n1ncn(-c2ccc(N3CCN(c4ccc(OC[C@@H]5CO[C@@](CN6CCNCC6)(c6ccc(Cl)cc6Cl)O5)cc4)CC3)cc2)c1=O (stereo partly drawn)")
0.608
>>> meas_value("CCC(C)n1ncn(-c2ccc(N3CCN(c4ccc(OC[C@@H]5CO[C@@](CN6CCN(C)CC6)(c6ccc(Cl)cc6Cl)O5)cc4)CC3)cc2)c1=O (stereo partly drawn)")
0.396
>>> meas_value("CCC(C)n1ncn(-c2ccc(N3CCN(c4ccc(OC[C@@H]5CO[C@@](Cn6cnc(C)c6)(c6ccc(Cl)cc6Cl)O5)cc4)CC3)cc2)c1=O (stereo partly drawn)")
0.102
>>> meas_value("CCC(C)n1ncn(-c2ccc(N3CCN(c4ccc(OC[C@@H]5CO[C@@](CC6CCCC6)(c6ccc(Cl)cc6Cl)O5)cc4)CC3)cc2)c1=O (stereo partly drawn)")
0.512
>>> meas_value("CCC(C)n1ncn(-c2ccc(N3CCN(c4ccc(OC[C@@H]5CO[C@@](Cn6cnc(C)n6)(c6ccc(Cl)cc6Cl)O5)cc4)CC3)cc2)c1=O (stereo partly drawn)")
0.272

Form field IC50, entry CCC(C)n1ncn(-c2ccc(N3CCN(c4ccc(OC[C@@H]5COC(c6ccc(Cl)cc6Cl)O5)cc4)CC3)cc2)c1=O (stereo partly drawn) : 0.328

====

Molecular target: CYP3A4 (Homo sapiens)
Construct: purchased ThermoFisher P2857; host or cells: baculosomes
Experiment: CYP3A4 enzyme assay (Vivid CYP3A4 Green Screening Kit)
Assay type: in vitro ADME
Details: % enzyme inhibition at 1 μM drug / % enzyme inhibition at 1 μM itraconazole
test-readout: CYP3A4 Inhibition (compared to intracozanole at 1 μm)
Please give only the number in your answer, with no unit.

Below, 10 molecules whose answers are already recorded.
>>> meas_value("CCc1nccn1C[C@@]1(c2ccc(Cl)cc2Cl)OC[C@@H](COc2ccc(N3CCN(c4ccc(-n5cnn(C(C)CC)c5=O)cc4)CC3)cc2)O1 (stereo partly shown)")
0.08
>>> meas_value("CCC(C)n1ncn(-c2ccc(N3CCN(c4ccc(OC[C@@H]5CO[C@@](Cn6nnnc6C)(c6ccc(Cl)cc6Cl)O5)cc4)CC3)cc2)c1=O (stereo partly shown)")
0.08
>>> meas_value("CCC(C)n1ncn(-c2ccc(N3CCN(c4ccc(OC[C@@H]5CO[C@@](Cn6ccnc6)(c6ccc(Cl)cc6Cl)O5)cc4)CC3)cc2)c1=O (stereo partly shown)")
1.18
>>> meas_value("CCC(C)n1ncn(-c2ccc(N3CCN(c4ccc(OC[C@@H]5CO[C@@](Cn6ccnc6-c6ccccc6)(c6ccc(Cl)cc6Cl)O5)cc4)CC3)cc2)c1=O (stereo partly shown)")
0.27
>>> meas_value("CCC(C)n1ncn(-c2ccc(N3CCN(c4ccc(OC[C@@H]5CO[C@@](Cn6cnc(C)n6)(c6ccc(Cl)cc6Cl)O5)cc4)CC3)cc2)c1=O (stereo partly shown)")
0.36
>>> meas_value("CCC(C)n1ncn(-c2ccc(N3CCN(c4ccc(OC[C@@H]5CO[C@@](CBr)(c6ccc(Cl)cc6Cl)O5)cc4)CC3)cc2)c1=O (stereo partly shown)")
0.03
>>> meas_value("CCC(C)n1ncn(-c2ccc(N3CCN(c4ccc(OC[C@@H]5CO[C@@](Cn6cc(C)nc6C)(c6ccc(Cl)cc6Cl)O5)cc4)CC3)cc2)c1=O (stereo partly shown)")
0.45
>>> meas_value("CCC(C)n1ncn(-c2ccc(N3CCN(c4ccc(OC[C@@H]5CO[C@@](Cn6nnnc6-c6ccccc6)(c6ccc(Cl)cc6Cl)O5)cc4)CC3)cc2)c1=O (stereo partly shown)")
0.22
>>> meas_value("CCC(C)n1ncn(-c2ccc(N3CCN(c4ccc(OC[C@@H]5CO[C@@](Cn6ccnc6C)(c6ccc(Cl)cc6Cl)O5)cc4)CC3)cc2)c1=O (stereo partly shown)")
0.85
>>> meas_value("CCC(C)n1ncn(-c2ccc(N3CCN(c4ccc(OC[C@@H]5CO[C@@](Cn6cnc(C)c6)(c6ccc(Cl)cc6Cl)O5)cc4)CC3)cc2)c1=O (stereo partly shown)")
1.18

Value (CYP3A4 Inhibition (compared to intracozanole at 1 μm), CYP3A4 (Homo sapiens)) for record CCC(C)n1ncn(-c2ccc(N3CCN(c4ccc(OC[C@@H]5CO[C@@](Cn6ccnc6C(C)C)(c6ccc(Cl)cc6Cl)O5)cc4)CC3)cc2)c1=O (stereo partly shown) = 0.07

====

System: HUVEC
Assay: HUVEC proliferation assay ([3H]thymidine incorporation)
Format: cell-based, human
Conditions: Homo sapiens; HUVEC, 3H thymidine incorporation; in μM; read-out: Proliferation IC50
Listing: log10(IC50) of selected compounds
# values: log10(IC50), units µM

>>> meas_value("CCC(C)n1ncn(-c2ccc(N3CCN(c4ccc(OC[C@@H]5CO[C@@](CN6CCOCC6)(c6ccc(Cl)cc6Cl)O5)cc4)CC3)cc2)c1=O (some centres unmarked) [Compound 263]")
0.07
>>> meas_value("CCC(C)n1ncn(-c2ccc(N3CCN(c4ccc(OC[C@@H]5CO[C@@](Cn6cc(C(F)(F)F)nc6C)(c6ccc(Cl)cc6Cl)O5)cc4)CC3)cc2)c1=O (some centres unmarked) [Compound 239]")
-0.36
>>> meas_value("CCC(C)n1ncn(-c2ccc(N3CCN(c4ccc(OC[C@@H]5CO[C@@](Cn6ccnc6-c6ccccc6)(c6ccc(Cl)cc6Cl)O5)cc4)CC3)cc2)c1=O (some centres unmarked) [Compound 246]")
-0.87
>>> meas_value("CCC(C)n1ncn(-c2ccc(N3CCN(c4ccc(OC[C@@H]5CO[C@@](Cn6nnnc6C)(c6ccc(Cl)cc6Cl)O5)cc4)CC3)cc2)c1=O (some centres unmarked) [Compound 252]")
-1.00

Next compound, log10(IC50) to be filled in.
# log10(IC50) of CCC(C)n1ncn(-c2ccc(N3CCN(c4ccc(OC[C@@H]5CO[C@@](Cn6ncnn6)(c6ccc(Cl)cc6Cl)O5)cc4)CC3)cc2)c1=O (some centres unmarked) [Compound 249] = -0.99

====

Molecular target: CYP3A4 (Homo sapiens)
Construct: purchased ThermoFisher P2857; host or cells: baculosomes
Test: CYP3A4 enzyme assay (Vivid CYP3A4 Green Screening Kit)
Assay type: in vitro ADME
Settings: % enzyme inhibition at 1 μM drug / % enzyme inhibition at 1 μM itraconazole
test-readout: CYP3A4 Inhibition (compared to intracozanole at 1 μm)

Use the examples below as a reference point.
>>> meas_value("CCC(C)n1ncn(-c2ccc(N3CCN(c4ccc(OC[C@@H]5CO[C@@](CN(C)C)(c6ccc(Cl)cc6Cl)O5)cc4)CC3)cc2)c1=O (some centres unmarked) [Compound 264]")
"No inhibition"
>>> meas_value("CCC(C)n1ncn(-c2ccc(N3CCN(c4ccc(OC[C@@H]5CO[C@@](Cn6cnc(C(F)(F)F)n6)(c6ccc(Cl)cc6Cl)O5)cc4)CC3)cc2)c1=O (some centres unmarked) [Compound 251]")
"No inhibition"
>>> meas_value("CCC(C)n1ncn(-c2ccc(N3CCN(c4ccc(OC[C@@H]5CO[C@@](CC)(c6ccc(Cl)cc6Cl)O5)cc4)CC3)cc2)c1=O (some centres unmarked) [Compound 259]")
"No inhibition"
>>> meas_value("CCC(C)n1ncn(-c2ccc(N3CCN(c4ccc(OC[C@@H]5CO[C@@](Cn6cc(C(F)(F)F)nc6C)(c6ccc(Cl)cc6Cl)O5)cc4)CC3)cc2)c1=O (some centres unmarked) [Compound 239]")
"No inhibition"
>>> meas_value("CCC(C)n1ncn(-c2ccc(N3CCN(c4ccc(OC[C@@H]5COC(c6ccc(Cl)cc6Cl)O5)cc4)CC3)cc2)c1=O (some centres unmarked) [Compound 262]")
"No inhibition"
>>> meas_value("CCC(C)n1ncn(-c2ccc(N3CCN(c4ccc(OC[C@@H]5CO[C@@](Cn6c(C)cnc6C)(c6ccc(Cl)cc6Cl)O5)cc4)CC3)cc2)c1=O (some centres unmarked) [Compound 241]")
0.27

The recorded CYP3A4 Inhibition (compared to intracozanole at 1 μm) for CCC(C)n1ncn(-c2ccc(N3CCN(c4ccc(OC[C@@H]5CO[C@@](Cn6ncnn6)(c6ccc(Cl)cc6Cl)O5)cc4)CC3)cc2)c1=O (some centres unmarked) [Compound 249] is 0.2

Lab note: CCC(C)n1ncn(-c2ccc(N3CCN(c4ccc(OC[C@@H]5CO[C@@](CN6CCOCC6)(c6ccc(Cl)cc6Cl)O5)cc4)CC3)cc2)c1=O (some centres unmarked) [Compound 263] gave CYP3A4 Inhibition (compared to intracozanole at 1 μm) of 0.20

Reported CYP3A4 Inhibition (compared to intracozanole at 1 μm) ( CCC(C)n1ncn(-c2ccc(N3CCN(c4ccc(OC[C@@H]5CO[C@@](CN6CCN(C)CC6)(c6ccc(Cl)cc6Cl)O5)cc4)CC3)cc2)c1=O (some centres unmarked) [Compound 265] ) = 0.21

Reported CYP3A4 Inhibition (compared to intracozanole at 1 μm) for CCC(C)n1ncn(-c2ccc(N3CCN(c4ccc(OC[C@@H]5CO[C@@](CC6CCCC6)(c6ccc(Cl)cc6Cl)O5)cc4)CC3)cc2)c1=O (some centres unmarked) [Compound 261] was No inhibition

The value of CYP3A4 Inhibition (compared to intracozanole at 1 μm) measured for the compound CCC(C)n1ncn(-c2ccc(N3CCN(c4ccc(OC[C@@H]5CO[C@@](CN6CCNCC6)(c6ccc(Cl)cc6Cl)O5)cc4)CC3)cc2)c1=O (some centres unmarked) [Compound 266] turned out to be 1.09
